// reported IC50 for each item listed
tgt: DRB1*0301 (DR3w17) (Homo sapiens, UniProt P01903+P01911, A100K/A102G/A103R/A169T/F55Y/I96L/K41T/L162R/M171V/P40S/Q125H/Q178H/Q39Y/R42S/S66N/T106N/T262R/W38E/Y61H)
Construct: used as sources of human HLA class II molecules; endogenous in cells; host or cells: MAT (EBV-transformed homozygous B cell line)
Sequence (P01903 26-254, other chains not shown): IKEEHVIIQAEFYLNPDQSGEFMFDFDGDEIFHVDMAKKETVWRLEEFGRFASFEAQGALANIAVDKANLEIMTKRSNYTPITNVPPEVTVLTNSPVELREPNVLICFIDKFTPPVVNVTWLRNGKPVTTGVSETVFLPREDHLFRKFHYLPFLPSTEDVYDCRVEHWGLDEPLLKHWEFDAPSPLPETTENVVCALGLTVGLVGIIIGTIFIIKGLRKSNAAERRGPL
assay-summary: Class II peptide-binding assay, DR3 (pH 4.5);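 further: unlabeled peptide competing with a radiolabeled probe peptide for binding to affinity-purified HLA-DR3, IC50 regarded as an approximation of Kd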
condition: read-out: DR3 nM (In IC50 Format); purified HLA DR3
Give the value, in units of µM, as a plain number.

| compound | numeric-readout |
| --- | --- |
| CSCC[C@H](NC(=O)[C@H](CC(C)C)NC(=O)[C@H](CCC(=O)O)NC(=O)CNC(=O)[C@H](Cc1c[nH]c2ccccc12)NC(=O)[C@@H](N)CS)C(=O)N[C@H](C(=O)N[C@@H](CC(C)C)C(=O)N[C@@H](C)C(=O)N[C@H](C(=O)N[C@@H](Cc1c[nH]c2ccccc12)C(=O)N[C@H](C(=O)NCC(=O)N[C@H](C(=O)N[C@@H](CC(N)=O)C(=O)N[C@@H](CC(C)C)C(=O)N[C@@H](CCC(=O)O)C(=O)N[C@@H](CC(=O)O)C(=O)O)C(C)C)C(C)C)[C@@H](C)O)[C@@H](C)O [Peptide 802.02] | 100 |
| CC[C@H](C)[C@H](NC(=O)[C@H](CCCNC(=N)N)NC(=O)[C@H](CO)NC(=O)[C@H](Cc1ccccc1)NC(=O)[C@@H](NC(=O)[C@H](CO)NC(=O)[C@H](CO)NC(=O)[C@H](CC(C)C)NC(=O)[C@@H]1CCCN1C(=O)[C@H](CO)NC(=O)[C@H](C)NC(=O)[C@@H](NC(=O)[C@@H](NC(=O)[C@H](CC(C)C)NC(=O)[C@@H](NC(=O)[C@@H]1CCCN1C(=O)[C@@H](N)CC(N)=O)C(C)C)[C@@H](C)O)[C@@H](C)O)[C@@H](C)CC)C(=O)O [Peptide 801.02] | 300 |
| CC[C@H](C)[C@H](NC(=O)[C@@H](NC(=O)[C@@H](NC(=O)[C@H](CCC(=O)O)NC(=O)[C@H](CCCNC(=N)N)NC(=O)CN)[C@@H](C)O)C(C)C)C(=O)N[C@@H](CCC(=O)O)C(=O)N[C@@H](Cc1ccc(O)cc1)C(=O)N[C@@H](CC(C)C)C(=O)N[C@H](C(=O)N[C@@H](CO)C(=O)N[C@@H](Cc1ccccc1)C(=O)NCC(=O)N[C@H](C(=O)N[C@@H](Cc1c[nH]c2ccccc12)C(=O)O)C(C)C)C(C)C [Peptide 802.04] | 16.7 |

--- query ---
Entry CSCC[C@H](N)C(=O)NCC(=O)N[C@@H](CCC(N)=O)C(=O)N[C@@H](CC(N)=O)C(=O)N[C@@H](CC(C)C)C(=O)N[C@@H](CO)C(=O)N[C@H](C(=O)N[C@@H](CO)C(=O)N[C@@H](CC(N)=O)C(=O)N1CCC[C@H]1C(=O)N[C@@H](CC(C)C)C(=O)NCC(=O)N[C@@H](Cc1ccccc1)C(=O)N[C@@H](Cc1ccccc1)C(=O)N1CCC[C@H]1C(=O)N[C@@H](CC(=O)O)C(=O)N[C@@H](Cc1c[nH]cn1)C(=O)O)[C@@H](C)O [Peptide 800.01] : reported IC50 = ?
6.82
